Target: T1, cynomolgus monkey C-MET His tag, monomeric (cynomolgus monkey, UniProt A0M8R7 25-932 (Papio anubis entry))
T1 construct: also called monomeric cyno C-MET; cyCMET
T1 sequence (A0M8R7 25-932 S170N/I621T): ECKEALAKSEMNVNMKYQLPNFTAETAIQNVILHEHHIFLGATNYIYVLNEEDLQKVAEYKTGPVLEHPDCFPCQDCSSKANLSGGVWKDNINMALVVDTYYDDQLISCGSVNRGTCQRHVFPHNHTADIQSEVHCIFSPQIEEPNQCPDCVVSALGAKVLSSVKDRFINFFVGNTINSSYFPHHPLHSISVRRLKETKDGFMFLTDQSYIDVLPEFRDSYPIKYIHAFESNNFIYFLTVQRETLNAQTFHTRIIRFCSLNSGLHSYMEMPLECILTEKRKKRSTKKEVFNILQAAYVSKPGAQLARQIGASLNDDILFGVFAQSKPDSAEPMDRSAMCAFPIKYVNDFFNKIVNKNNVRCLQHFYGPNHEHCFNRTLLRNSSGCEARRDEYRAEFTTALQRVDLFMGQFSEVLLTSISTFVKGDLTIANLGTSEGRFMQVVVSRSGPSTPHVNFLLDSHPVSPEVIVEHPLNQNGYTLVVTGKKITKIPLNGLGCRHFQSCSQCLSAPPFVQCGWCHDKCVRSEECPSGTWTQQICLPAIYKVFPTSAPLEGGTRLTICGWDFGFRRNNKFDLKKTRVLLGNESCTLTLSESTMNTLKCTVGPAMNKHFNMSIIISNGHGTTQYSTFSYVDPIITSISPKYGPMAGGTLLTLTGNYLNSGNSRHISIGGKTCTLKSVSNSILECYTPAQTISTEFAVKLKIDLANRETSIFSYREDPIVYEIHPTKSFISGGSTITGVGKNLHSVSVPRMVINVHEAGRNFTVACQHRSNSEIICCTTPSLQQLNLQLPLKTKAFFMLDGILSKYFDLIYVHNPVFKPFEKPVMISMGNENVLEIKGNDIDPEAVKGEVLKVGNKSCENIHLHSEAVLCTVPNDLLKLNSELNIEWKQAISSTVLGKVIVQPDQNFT
Experiment: SPR Biacore, IgG captured, monomeric C-MET-His analyte
observable: koff (s⁻¹)
Just the number in s⁻¹, nothing appended.

Request the reported koff associated with 09E04 (antibody, IgG4, V domains shown) VH: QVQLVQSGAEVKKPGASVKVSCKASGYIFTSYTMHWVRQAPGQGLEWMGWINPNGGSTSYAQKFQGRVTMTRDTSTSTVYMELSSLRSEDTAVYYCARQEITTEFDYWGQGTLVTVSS VL: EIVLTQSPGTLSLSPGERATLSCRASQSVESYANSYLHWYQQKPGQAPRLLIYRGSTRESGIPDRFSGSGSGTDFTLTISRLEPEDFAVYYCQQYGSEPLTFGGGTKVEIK 6.4e-05
